target_or_system: human interleukin-2 receptor α-chain (IL-2Rα; CD25), recombinant protein (human) (UniProt P01589)
Sequence (P01589 22-240 limits assumed): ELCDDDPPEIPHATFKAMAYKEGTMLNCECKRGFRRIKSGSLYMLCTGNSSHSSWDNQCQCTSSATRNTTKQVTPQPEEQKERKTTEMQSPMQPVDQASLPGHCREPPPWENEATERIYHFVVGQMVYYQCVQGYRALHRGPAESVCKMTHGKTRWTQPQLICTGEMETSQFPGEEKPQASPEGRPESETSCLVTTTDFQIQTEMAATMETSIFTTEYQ
assay_info: ELISA, monovalent VHH-hFc
endpoint_label: pEC50
Quick note: pEC50 values are minus log10 of concentrations in mol/L.

What pEC50 value was documented for this binder, 6-MP01G05 VHH-hFc, monospecific monovalent (Fc fusion, part only; not given: Both Fc arms and linker, not shown: another chain or arm of the molecule; a dimerising Fc or GST; small tags and cut ends) VHH: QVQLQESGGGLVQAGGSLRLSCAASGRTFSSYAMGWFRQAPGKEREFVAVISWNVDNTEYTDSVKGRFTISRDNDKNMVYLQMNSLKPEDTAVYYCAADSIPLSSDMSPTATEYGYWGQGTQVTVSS ?
9.57

What pEC50 value was documented for this binder, 7-MP01G08 VHH-hFc, monospecific monovalent (Fc fusion, part only; not given: Both Fc arms and linker, not shown: another chain or arm of the molecule; a dimerising Fc or GST; small tags and cut ends) VHH: EVQLVESGGGLVQAGGSLRLSCAASGRAFSMYNMGWFRQAPGKEREFVAATGWSGANTPYADSVKGRFTISRDNTQNTVYLQMNSLKPEDTATYYCAADSIRLRSDVTRIPLEYDYWGQGTQVTVSS ?
9.76

What pEC50 value was documented for this binder, 8-MP01C12 VHH-hFc, monospecific monovalent (Fc fusion, part only; not given: Both Fc arms and linker, not shown: another chain or arm of the molecule; a dimerising Fc or GST; small tags and cut ends) VHH: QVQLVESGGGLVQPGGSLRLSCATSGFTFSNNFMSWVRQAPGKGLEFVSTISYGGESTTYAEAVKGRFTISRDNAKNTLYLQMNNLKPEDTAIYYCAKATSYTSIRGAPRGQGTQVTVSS ?
10.19

What pEC50 value was documented for this binder, 5-MP01F05 VHH-hFc, monospecific monovalent (Fc fusion, part only; not given: Both Fc arms and linker, not shown: another chain or arm of the molecule; a dimerising Fc or GST; small tags and cut ends) VHH: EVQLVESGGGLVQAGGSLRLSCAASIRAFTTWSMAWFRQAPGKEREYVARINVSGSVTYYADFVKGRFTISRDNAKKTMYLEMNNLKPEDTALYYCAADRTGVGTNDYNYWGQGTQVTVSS ?
10.06

What pEC50 value was documented for this binder, 11-MP05H04 VHH-hFc, monospecific monovalent (Fc fusion, part only; not given: Both Fc arms and linker, not shown: another chain or arm of the molecule; a dimerising Fc or GST; small tags and cut ends) VHH: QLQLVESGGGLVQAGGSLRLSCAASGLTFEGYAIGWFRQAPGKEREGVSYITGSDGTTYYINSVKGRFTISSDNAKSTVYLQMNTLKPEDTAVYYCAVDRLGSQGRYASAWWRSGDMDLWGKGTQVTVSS ?
9.42

What pEC50 value was documented for this binder, 9-MP05G01 VHH-hFc, monospecific monovalent (Fc fusion, part only; not given: Both Fc arms and linker, not shown: another chain or arm of the molecule; a dimerising Fc or GST; small tags and cut ends) VHH: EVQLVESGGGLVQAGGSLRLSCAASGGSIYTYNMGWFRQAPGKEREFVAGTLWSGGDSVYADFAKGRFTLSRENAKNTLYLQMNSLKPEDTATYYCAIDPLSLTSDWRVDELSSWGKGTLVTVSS ?
10.11

What pEC50 value was documented for this binder, 1-MP01H01 VHH-hFc, monospecific monovalent (Fc fusion, part only; not given: Both Fc arms and linker, not shown: another chain or arm of the molecule; a dimerising Fc or GST; small tags and cut ends) VHH: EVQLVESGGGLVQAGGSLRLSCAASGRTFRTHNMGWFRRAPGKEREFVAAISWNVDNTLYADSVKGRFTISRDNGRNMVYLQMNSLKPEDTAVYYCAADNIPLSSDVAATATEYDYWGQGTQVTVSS ?
9.32

What pEC50 value was documented for this binder, 10-MP05F03 VHH-hFc, monospecific monovalent (Fc fusion, part only; not given: Both Fc arms and linker, not shown: another chain or arm of the molecule; a dimerising Fc or GST; small tags and cut ends) VHH: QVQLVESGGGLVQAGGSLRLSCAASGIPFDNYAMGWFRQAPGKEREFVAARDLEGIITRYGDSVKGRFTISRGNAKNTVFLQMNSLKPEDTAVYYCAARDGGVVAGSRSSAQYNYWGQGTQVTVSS ?
9.98
